# Test system: RIVA
# assay.name: growth inhibition by drug plus 177Lu-lilotomab satetraxetan (1 - RLU/untreated control) (fraction); higher = stronger inhibition
# assay.context: 10 nM; time (day): 5; 177Lu-lilotomab satetraxetan 0.5 ug/ml
Assign growth inhibition by drug plus 177Lu-lilotomab satetraxetan to each entry below.
Answers are plain numbers.

[[record]]
molecule = "Nc1ncn([C@H]2C[C@H](O)[C@@H](CO)O2)c(=O)n1"
observed = 0.569

[[record]]
molecule = "CCN(CC)CCNC(=O)c1c(C)[nH]c(/C=C2\\C(=O)Nc3ccc(F)cc32)c1C [Sunitinib Malate (Sutent)]"
observed = 0.477

[[record]]
molecule = "CN1CCN(c2cccc(Nc3nc4c(-c5ccc(S(C)(=O)=O)cc5)cccn4n3)c2)CC1"
observed = 0.496

[[record]]
molecule = "Cn1c(=O)c(F)c(Nc2ccc(I)cc2F)c2c(=O)n(C[C@@H](O)CO)cnc21"
observed = 0.489

[[record]]
molecule = "O=C(Nc1cccc(Cl)c1)Nc1ncc(CCNc2ncnc3ccsc23)s1"
observed = 0.579


# batch size: 3; output growth inhibition by drug plus 177Lu-lilotomab satetraxetan per entry
1. Nc1cc(C(F)(F)F)c(-c2cc(N3CCOCC3)nc(N3CCOCC3)n2)cn1
2. COc1cc2c(N3CCN(C(=O)Nc4ccc(OC(C)C)cc4)CC3)ncnc2cc1OCCCN1CCCCC1
3. COc1cc2ncnc(-n3nc(-c4ccccn4)nc3N)c2cc1OC

Response:
1. 0.461
2. 0.54
3. 0.58

Please give growth inhibition by drug plus 177Lu-lilotomab satetraxetan for each item listed below.
1. COc1ccc(C2CC(c3ccccc3)=NN2c2ccc(S(N)(=O)=O)cc2)cc1 (configuration not stated)
2. COc1ccc(-c2ccc3c(N4CCOCC4)nc(N4C[C@@H](C)O[C@@H](C)C4)nc3n2)cc1CO
3. COc1ccc(COc2cc3oc(=O)c4cc(C(C)O)ccc4c3cc2OC)cc1 (configuration not stated)

Response:
0.534
0.603
0.494

Dear colleague, could you please provide growth inhibition by drug plus 177Lu-lilotomab satetraxetan for the molecules listed below?
1. CCN(CC)CCCC(C)Nc1nc(C)cc(Nc2ccc3nc(C)cc(N)c3c2)n1 (configuration not stated)
2. Cn1cncc1[C@@](N)(c1ccc(Cl)cc1)c1ccc2c(c1)c(-c1cccc(Cl)c1)cc(=O)n2C [Tipifarnib (Zarnestra)]
3. Nc1ccc(C(=O)Nc2cccc(-c3nc(N4CCOCC4)c4oc5ncccc5c4n3)c2)cn1
4. CN(CCOc1ccc(CC2SC(=O)NC2=O)cc1)c1ccccn1 (configuration not stated)
5. C=CC[C@@H]1/C=C(\C)C[C@H](C)C[C@H](OC)[C@H]2O[C@@](O)(C(=O)C(=O)N3CCCC[C@H]3C(=O)O[C@H](/C(C)=C/[C@@H]3CC[C@@H](O)[C@H](OC)C3)[C@H](C)[C@@H](O)CC1=O)[C@H](C)C[C@@H]2OC
6. Cc1ccc(NC(=O)c2cccc(C(C)(C)C#N)c2)cc1Nc1ccc2ncn(C)c(=O)c2c1

Response:
[0.627, 0.452, 0.558, 0.564, 0.834, 0.643]
